Target: T1, cyno IgE c(epsilon)2-c(epsilon)3-c(epsilon)4 Fc fragment with C-terminal (His)10 tag (cynomolgus monkey)
T1 construct: Made in HEK-EBNA cells with the murine Ig kappa leader; Biotinylated in the Alphascreen; also called cyno IgE Fc; cyno IgE-Fc
T1 chain: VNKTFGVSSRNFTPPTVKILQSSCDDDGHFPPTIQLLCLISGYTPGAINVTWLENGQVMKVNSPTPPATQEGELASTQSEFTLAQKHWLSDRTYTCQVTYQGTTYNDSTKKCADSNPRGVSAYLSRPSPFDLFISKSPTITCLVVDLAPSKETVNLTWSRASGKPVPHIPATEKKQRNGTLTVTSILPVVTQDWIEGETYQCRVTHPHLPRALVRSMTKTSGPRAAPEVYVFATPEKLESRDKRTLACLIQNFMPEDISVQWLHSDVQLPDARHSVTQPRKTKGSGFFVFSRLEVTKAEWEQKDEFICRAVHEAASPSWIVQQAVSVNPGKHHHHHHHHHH
Assay protocol: Alphascreen, competition with HuFc(epsilon)RI(alpha)Fc for cyno IgE Fc
Reported % inhibition at 250 nM Nanobody values for a set of binders
Report only the number, with the unit % understood.

[Q] State, in one line, measured % inhibition at 250 nM Nanobody of Nanobody 39D11 (VHH, not shown: C-terminal c-myc tag and His6 tag) VHH: EVQLVESGGGLVQPGGSLRLSCAASGFTFGSYDMSWVRQAPGKGPEWVSSIDTGGDITHYADSVKGRFTISRDNANNMLYLQMNSLKPEDTAVYWCATDEDYALGPNEYDYYGQGTQVTVSS
[A] 93.5

[Q] State, in one line, measured % inhibition at 250 nM Nanobody of Nanobody 42D7 (VHH, not shown: C-terminal c-myc tag and His6 tag) VHH: EVQLVESGGGLVQPGGPLRLSCAASGFTFGSYDMSWVRQAPGKGPEWVSSIDTGGDITHYADSVKGRFTISRDNANNMLYLQMNSLKPEDTAVYWCATDEDYALGPNEYDYYGQGTQVTVSS
[A] 92.7

Then this binder:
[Q] State, in one line, measured % inhibition at 250 nM Nanobody of Nanobody 39D8 (VHH, also called 39D08; not shown: C-terminal c-myc tag and His6 tag) VHH: EVQLVESGGGLVQPGGSLRLSCAASGFTFGSYDMSWVRQAPGKGPEWVSSIDTGGDITHYADSVKGRFTISRDNANNMLYLQMNSLKPGDTAVYWCATDEDYALGPNEYDYYGQGTQVTVSS
[A] 93.6
